Reported selectivity ratio values are given for each entry in this list.
- measurement.notes: Selectivity index, ratio of IC50 for african green monkey Vero cells to IC50 for static antileishmanial activity against Leishmania donovani 9515 (MHOM/IN/95/9151) amastigote
- Format: toxicity, cell-based
- experimental.context: read-out: Ratio IC50
recorded.metric: selectivity ratio

1) C#CCn1cc(/C=N\N=C\c2ccc([N+](=O)[O-])s2)c2cc([N+](=O)[O-])ccc21
22
2) C#CCn1cc(\C=N/N=C/C(C)=C\C)c2cc([N+](=O)[O-])ccc21
226
3) C#CCn1cc(/C=N\N=C\c2cccs2)c2cc([N+](=O)[O-])ccc21
12
4) C#CCn1cc(/C=N\N=C\C2CCCCC2)c2cc([N+](=O)[O-])ccc21
> 35
5) C#CCn1cc(/C=N\N=C\c2ccc([N+](=O)[O-])cc2)c2cc([N+](=O)[O-])ccc21
3
6) C#CCn1cc(/C=N\N=C\c2ccco2)c2cc([N+](=O)[O-])ccc21
> 112
